Field: TGI. Provide a value for each of the compounds that follow.
tested on: RPMI-8226 leukemia; test: NCI tumour cell line growth inhibition, 48 h

# count of solved cases: 8
O=C(Nc1cccc(Cl)c1)Nn1cnnc1 :: > 100 µM
Cc1cc2c(C)nn(Cc3ccccc3)c2c(C(=O)O)c1C :: > 100 µM
Cn1c(=O)nc2n(-c3ccc(O)cc3)c3ccccc3nc-2c1=O :: > 100 µM
O=c1[nH]/c(=C/c2ccc(OCc3ccccc3)cn2)c(=O)[nH]/c1=C/c1ccccc1 :: > 100 µM
Clc1ccc(-c2cn3ccnc3c(-c3ccc(Cl)cc3)n2)cc1 :: > 100 µM
c1cc[c]([Sn][c]2ccccc2)cc1 :: 49.2 µM
COc1cc(Cl)cc(=O)c(O)c1OC :: > 100 µM
O=C(NCC1CC1)c1ccc(-c2cccc(C(=O)NC3CC3)c2)cc1 :: > 25 µM

For each of the compounds below, note its TGI.
1. COC(=O)C1=CO[C@@H](OC2CC(CO)C(O)C(O)C2O)[C@@H]2[C@@H](C)[C@@H](OC(=O)/C=C/c3ccccc3)[C@@H](O)[C@H]12 (some centres not stated) (tested in a mixture with another compound)
2. C[C@H](c1ccccc1)N1C(=O)[C@@H](O)[C@H]1[C@H](CO)OCc1ccccc1
3. CCc1n[nH]c(=O)n1CCCCCCCCCCCCn1c(CC)n[nH]c1=O
4. C/C(CC(O)(C(F)(F)F)C(F)(F)F)=N\NC(N)=O
5. CC(=O)Nc1ccc2c(C)c3c(nc2n1)[nH]c1ccccc13

Completion:
["> 100 µM", "> 100 µM", "> 100 µM", "> 10 µM", "55.2 µM"]

Items follow; give TGI for each.
1. NC(=O)CNC(=O)[C@@H]1CC(OCCC(=O)O)CN1C(=O)C1CCCN1C(=O)OCc1ccccc1 (some centres not stated)
2. Nc1nc2ccc(-c3nc4ccc5[nH]ncc5c4c4c3CCC4)cc2s1

Completion:
1: > 100 µM; 2: 10.5 µM

Give TGI for each listed item.
1. CCOC(=O)Oc1c(OC)cc(C(=O)c2ccc(OC)c(O)c2OC)cc1OC
2. C=CCC1(C#N)C(=S)NC2=C(C(=O)CC(C)(C)C2)C1c1ccccc1 (configuration not stated)

Completion:
1. > 100 µM
2. > 100 µM

Please state TGI for every compound in the list that follows.
1. O=c1[nH]c(Nc2ccccc2)nc2c1ncn2CC(O)CSCCO (configuration not stated)
2. CC12CCC(CC(=O)/C1=C(/Br)I)C2(C)C (configuration not stated)

Completion:
1. > 100 µM
2. 26.4 µM
